- ASSAY_INFO: Phase 1 Stage 1 clinical pharmacokinetics of SC ZA co-administered with rHuPH20
- Type: in vivo, human
- RUN_CONDITIONS: human, serum, sc, […], Subj 16; ZA […] SC; inf 0.553 hr; PH20 23904 U; read-out: Tmax
- Experimental: A pharmacokinetic study of zoledronic acid (ZA) co-administered with rHuPH20 in human subjects was conducted. […] Serum concentration of ZA was determined using a qualified LC-MS-MS assay after derivatization with diazomethane (Zhu, L S et al. (2006) Rapid Commun. […] The assay range was from 2.0 to 400 ng/mL with a lower limit of quantitation (LLOQ) at 2.0 ng/mL. […] Summary statistics (mean, standard deviation, and median) were calculated using JMP or Microsoft Excel.
MEASURED_ATTRIBUTE: Tmax (min)

1) O=P(O)(O)C(O)(Cn1ccnc1)P(=O)(O)O [ZA]; 48
